tested on: HepG2; experiment: cytotoxicity call (relative viability < 0.9); conditions: 10 µM
In all, about 39,000 compounds went through this assay and about 3,300 (8.5%) were called active. Many of the other results were omitted from the sample, so actives are more common in it than they were.
measurement_kind: cytotoxicity call

Record excerpt, results attached:
COc1ccc(S(=O)(=O)N(C)C[C@@H]2OCCCC[C@H](C)Oc3ccc(NC(=O)NC4CCCCC4)cc3C(=O)N([C@H](C)CO)C[C@H]2C)cc1    inactive
Cc1csc2c(N3CCC(Cn4cc(C(C)(C)N)nn4)CC3)ncnc12    inactive
COc1ccc(-c2oc3cc(O[C@@H]4O[C@@H](C)[C@H](O)[C@@H](O)[C@H]4O)cc(O)c3c(=O)c2O[C@@H]2O[C@H](CO)[C@@H](O)[C@H](O)[C@H]2O)cc1    inactive
C[C@H]1CN([C@@H](C)CO)S(=O)(=O)c2ccc(C#CC3CC3)cc2O[C@@H]1CN(C)C(=O)c1cccc(F)c1    inactive

HepG2 assay, molecule C[C@@H]1CN([C@H](C)CO)C(=O)c2cc(NC(=O)Cn3cnnn3)ccc2O[C@H]1CN(C)S(=O)(=O)c1cn(C)cn1 , recorded cytotoxicity call = inactive

HepG2 assay, molecule CN1C=C(C(=O)OCCS(C)(=O)=O)C(C(=O)OCCS(C)(=O)=O)=CC(CCCO)=C[C@@H]1C1CC1 , recorded cytotoxicity call = inactive

HepG2 assay, molecule CCCNC(=O)N[C@@H]1C=C[C@H](CC(=O)N2CCN(C)CC2)O[C@@H]1CO , recorded cytotoxicity call = inactive
